I'd appreciate it if you could supply activity change, negative = inhibition values for the items below.
assay: qHTS Assay for Lipid Storage Modulators (AID 1519); conditions: Drosophila S3 cells, BODIPY lipid droplet/cell ratio, laser cytometry; at 57.5 µM (top of the series); cells loaded with oleic acid; further: on the % scale 0 is the no-effect control and ±100 the full control effect
Inconclusive results are not listed. Active and inactive are the calls of the source. The call rests on the fitted dose curve.

The recorded activity change, negative = inhibition for entry CN(C)c1ncc2nc(-c3cccc(C#N)c3)c(=O)n(CCC#N)c2n1 equals 1.84% (inactive)

Entry FC(F)(F)c1ccccc1-c1nccc(N2CCNCC2)n1 , activity change, negative = inhibition reported as 4.7% (inactive)

Form: molecule = O=C(c1cc(C(F)(F)F)cc(C(F)(F)F)c1)N1CCC2(CC1)CCN(c1ccncc1)CC2 ; activity change, negative = inhibition = 0.636% (inactive)

// COc1ccccc1-c1cc(NCc2ccccc2)ncn1 : activity change, negative = inhibition value = 2.28% (inactive)

CC(=O)N1CCC2(CCCN(c3ccccn3)C2)CC1 yielded activity change, negative = inhibition of 5.15% (inactive)

# molecule CN(C)Cc1ccccc1-c1nc(NCc2ccccc2)c2ccccc2n1 ; its activity change, negative = inhibition = 5.53% (inactive)

* * *

test: qHTS for differential inhibitors of proliferation of Plasmodium falciparum line 3D7 (AID 1876); details: P. falciparum 3D7 proliferation inhibition; series mostly up to 28.7 µM
Records with an inconclusive call do not appear. The source made the active and inactive calls. The call rests on the fitted dose curve; in most records, active means well fitted curve in the direction sought with a large enough effect; inconclusive means small, poorly fitted or top-dose-only effect, or another doubt; inactive means no such curve, though single readings can be large or run the other way.
Hi! Could you answer with just one of these? active, inactive

What did the test return for O=C(Cc1ccc(Cl)c(Cl)c1)OCCN1CCCC1 ?
inactive

Write down the call the test reported for this compound. Item: NC(=NCCC[C@H](N)C(=O)O)NO
inactive

Returns: the outcome recorded for CN1C2CC(OC(=O)C(CO)c3ccccc3)CC1C1OC12 (stereo not given) in this assay.
inactive

For Nc1ncnc2c1ncn2[C@@H]1O[C@H](C(=O)NC2CC2)[C@H](O)[C@H]1O , which call appears in the assay record?
inactive

Which outcome did this test record for the compound CC(O)[C@@H](O)[C@H]1CNc2nc(N)[nH]c(=O)c2N1 (stereo not given in full) ?
inactive

Which result was noted for this compound in the test: CN(C)C1C(=O)C(C(N)=O)=C(O)[C@@]2(O)C(=O)C3=C(O)c4c(O)ccc(Cl)c4[C@@H](O)C3C[C@@H]12 (stereo not given in full)
active

Hi, sorry to bother you, what did the test record for NCCCCNS(=O)(=O)c1cccc2c(Cl)cccc12 ?
active

# lookup: test call for Nc1nc2c(nc(Br)n2C2O[C@H]3COP(=O)(O)O[C@@H]3C2O)c(=O)[nH]1 (stereo not given in full)
active

Please share the test call associated with OC[C@H]1O[C@@H](n2cnc3c(NC4CCCC4)ncnc32)[C@H](O)[C@H]1O .
inactive

Can you look up the reported call for CNC(=O)[C@H]1O[C@@H](n2cnc3c(NCc4ccc(N)cc4)ncnc32)[C@H](O)[C@H]1O for me?
inactive

* * *

test: Validation screen for small molecules that induce DNA re-replication in SW480 colon adenocarcinoma cells (AID 504364); details: DNA re-replication phenotype (high-content imaging); series mostly up to 46.1 µM; further: 0% is about no effect
Inconclusive results are not listed. The source made the active and inactive calls. Calls follow the shape of the dose curve; as a rule, active = well fitted activation curve with a large enough effect; inconclusive = small, poorly fitted or top-dose-only effect; inactive = flat fitted curve, though single readings scatter.
Measured parameter: outcome

Worked cases, outcome given:
// sample O=C(O)CC[C@H](NC(=O)c1ccccc1C(=O)O)C(=O)O , its outcome was inactive

Given item Cc1ccccc1N1CCN(S(=O)(=O)C[C@]23CCC(CC2NC(=O)[C@@H](N)CCS(C)(=O)=O)C3(C)C)CC1 (stereo not given in full) , the value recorded as its outcome is inactive

What the record says about CSc1nc(N)c2ncn([C@@H]3O[C@H](COP(=O)(O)OP(=O)(O)O)[C@H](O)[C@H]3O)c2n1 : outcome is inactive

Per the records, this compound ( OC[C@H]1O[C@@H](n2cnc3c(Nc4ccccc4)ncnc32)[C@H](O)[C@H]1O ) has outcome equal to inactive

For record OC[C@H]1O[C@@H](n2cnc3c(NC4CCCC4)ncnc32)[C@H](O)[C@H]1O the listed outcome is inactive

outcome for CSc1nc(N)c2ncn([C@@H]3O[C@H](COP(=O)(O)OP(=O)(O)OP(=O)(O)O)[C@H](O)[C@H]3O)c2n1 is inactive

// below: outcome requested for another compound
// sample Nc1nc(SCc2ccc([N+](=O)[O-])cc2)c2ncn([C@@H]3O[C@H](CO)[C@H](O)[C@H]3O)c2n1 , its outcome was inactive

Value source: PubChem BioAssay (NCATS)
